// data source = patent US20160177307

# assayed_target: PDGF-BB (platelet-derived growth factor BB) (Homo sapiens)
# procedure_text: filter
# particulars: NapdU at P; 2'-OMe 4,12,17
recorded_endpoint: pKd
Answers are plain numbers, as −log10 of the molar value.

Lookup: Could you share which pKd value was measured for CGACAGCATGTATGCACATCT [5169-4_117] ?
Found: 9.15

---

# assayed_target: PDGF-BB (platelet-derived growth factor BB) (Homo sapiens)
# procedure_text: filter
# particulars: Bn-dU, MBn-dU, Nap-dU, 2'-OMe, C3; 4 Heg between parts
recorded_endpoint: pKd
Answers are plain numbers, as −log10 of the molar value.

Lookup: Could you share which pKd value was measured for TTACGTTACCGCGTTTATAGCGCCGTTCAAGTGCTTGTAGGATTTAAATGG [4149-8_415] ?
Found: 11.09

---

# System: VEGF-121 (Homo sapiens), P15692-9
# Sequence: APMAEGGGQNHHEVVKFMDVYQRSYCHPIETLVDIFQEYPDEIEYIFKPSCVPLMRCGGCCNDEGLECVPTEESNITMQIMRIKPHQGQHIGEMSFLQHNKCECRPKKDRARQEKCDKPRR
# procedure_text: filter
# particulars: Z BndU, P NapdU, 2'-OMe at superscript-1 positions, C3 spacers, three Heg linkers
recorded_endpoint: pKd
Give bare numbers, as −log10 of the molar value.

Lookup: Could you share which pKd value was measured for TTACGTTACACGCGTTTATAGCGCCGTTCAAGTGCTTTAGATTTAAATG [4149-8_320] ?
Found: 9.37

---

# assayed_target: PDGF-BB (platelet-derived growth factor BB) (Homo sapiens)
# procedure_text: filter
# particulars: Bn-dU; Pe-dU17; 2'-F C10; Heg; 2'-OMe
pKd: −log10 of the molar value.
recorded_endpoint: pKd

Lookup: Could you share which pKd value was measured for TTACGTTACACGCGTTTATAGCG [4149-8_350] ?
Found: < 8.00

---

# System: VEGF-121 (Homo sapiens), P15692-9
# Sequence: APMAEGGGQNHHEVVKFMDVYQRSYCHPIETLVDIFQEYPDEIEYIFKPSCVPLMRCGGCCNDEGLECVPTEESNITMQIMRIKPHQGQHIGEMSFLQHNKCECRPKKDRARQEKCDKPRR
# procedure_text: filter
# particulars: NapdU at P; C3 spacer 15,18
recorded_endpoint: Kd
Write the numeric value and follow it with the unit.

Lookup: Could you share which Kd value was measured for CCGTTCAAGTGCTTTAGATTTAAATGG [4867-31_183] ?
Found: 0.091 nM

---

# System: VEGF-164 (Rattus norvegicus), P16612-2
# Sequence: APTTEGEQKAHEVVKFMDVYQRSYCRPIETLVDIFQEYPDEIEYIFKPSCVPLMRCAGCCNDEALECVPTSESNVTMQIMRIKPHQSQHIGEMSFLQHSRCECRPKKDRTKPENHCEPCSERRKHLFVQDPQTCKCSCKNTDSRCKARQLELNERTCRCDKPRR
# procedure_text: filter
# particulars: P=Nap-dU
recorded_endpoint: Kd (nM)
Answers are plain numbers, in nM.

Consider the following illustrative entries.
Lookup: Could you share which Kd value was measured for CAGCCGTTCAAGTGCTTGTAGGATTTAA [4867-31_48] ?
Found: 142

Lookup: Could you share which Kd value was measured for AATCAGCCGTTCAAGTGCTTGTAGGATTTAAATGGAAT [4867-31_27] ?
Found: 0.07

Lookup: Could you share which Kd value was measured for TCAGCCGTTCAAGTGCTTGTAGGATTTAAATGGAAT [4867-31_29] ?
Found: 0.08

I'm hoping you can list Kd for every sequence here, please.
1. TCAATCAGCCGTTCAAGTGCTTGTAGGATTTAAATGGA [4867-31_22]
2. CAATCAGCCGTTCAAGTGCTTGTAGGATTTAAATGGAAT [4867-31_26]
3. CAATCAGCCGTTCAAGTGCTTGTAGGATTTAAATGGAA [4867-31_32]
4. AGCCGTTCAAGTGCTTGTAGGATTTAAATGG [4867-31_51]
5. ATCAGCCGTTCAAGTGCTTGTAGGATTTAAATGGAA [4867-31_34]

Found:
0.54
0.07
0.06
0.074
0.05

---

# Tested on: VEGF-165 (Homo sapiens), P15692-4
# Sequence: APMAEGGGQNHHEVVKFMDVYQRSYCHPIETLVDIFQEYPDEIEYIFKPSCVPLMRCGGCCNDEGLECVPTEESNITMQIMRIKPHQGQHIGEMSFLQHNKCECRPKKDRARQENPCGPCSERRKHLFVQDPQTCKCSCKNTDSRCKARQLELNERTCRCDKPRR
# procedure_text: filter
# particulars: Nap-dU, Bn-dU; C3; 2 Heg linker; 2'-OMe; VEGF
recorded_endpoint: pKd
One number for each entry, as −log10 of the molar value.

Lookup: Could you share which pKd value was measured for CCGTTCAAGTGCTTTAGATTTAAATGGTTACGTTACACGCGTTTATAGC [4149-8_315] ?
Found: 10.07

---

# assayed_target: PDGF-BB (platelet-derived growth factor BB) (Homo sapiens)
# procedure_text: filter
# particulars: Nap-dU, Bn-dU, MBn-dU, 2'-OMe, C3; 3 Heg between parts
recorded_endpoint: Kd (nM)
One number for each entry, in nM.

Lookup: Could you share which Kd value was measured for CCGTTCAAGTGCTTGTAGGATTTAAATGGTTACGTTACCGCGTTTATAGCG [4149-8_410] ?
Found: 0.02

---

# Test system: VEGF-121 (Homo sapiens), P15692-9
# Sequence: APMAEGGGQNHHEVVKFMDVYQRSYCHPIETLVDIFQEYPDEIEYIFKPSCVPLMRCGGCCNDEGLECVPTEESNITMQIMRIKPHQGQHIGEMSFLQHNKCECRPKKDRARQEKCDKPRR
# procedure_text: filter
# particulars: P=Nap-dU; 2'-OMe C4 (inferred, superscript lost)
recorded_endpoint: pKd
Give bare numbers, as −log10 of the molar value.

Lookup: Could you share which pKd value was measured for AGCCGTTCAAGTGCTTGTAGGATTTAAATGGA [4867-31_68] ?
Found: 8.12

---

# assayed_target: PDGF-BB (platelet-derived growth factor BB) (Homo sapiens)
# procedure_text: filter
# particulars: NapdU at P; 2'-OMe 7,8,9
recorded_endpoint: Kd (nM)
One number for each entry, in nM.

Lookup: Could you share which Kd value was measured for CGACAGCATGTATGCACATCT [5169-4_130] ?
Found: 4.5

---

# Test system: VEGF-121 (Homo sapiens), P15692-9
# Sequence: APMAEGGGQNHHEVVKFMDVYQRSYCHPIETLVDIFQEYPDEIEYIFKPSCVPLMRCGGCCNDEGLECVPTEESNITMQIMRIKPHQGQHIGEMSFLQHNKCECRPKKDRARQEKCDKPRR
# procedure_text: filter
# particulars: NapdU at P; C3 spacer 15; 2'-OMe 9,17,18,25,28,29 as printed
recorded_endpoint: Kd (nM)
Give bare numbers, in nM.

Lookup: Could you share which Kd value was measured for CCGTTCAAGTGCTTTAGGATTTAAATGG [4867-31_189] ?
Found: 0.9

---

# System: VEGF-121 (Homo sapiens), P15692-9
# Sequence: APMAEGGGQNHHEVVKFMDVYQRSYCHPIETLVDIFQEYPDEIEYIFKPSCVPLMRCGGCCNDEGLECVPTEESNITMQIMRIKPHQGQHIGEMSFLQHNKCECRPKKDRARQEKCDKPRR
# procedure_text: filter
# particulars: NapdU at P; 2'-OMe 9,15,17,18,28,29 as printed
recorded_endpoint: pKd
Give bare numbers, as −log10 of the molar value.

Lookup: What reported pKd corresponds to CCGTTCAAGTGCTTGTAGGATTTAAATGG [4867-31_191] on VEGF-121 (Homo sapiens), P15692-9?
Found: 10.00

---

# assayed_target: PDGF-BB (platelet-derived growth factor BB) (Homo sapiens) (UniProt P01127)
# Sequence (P01127 82-190): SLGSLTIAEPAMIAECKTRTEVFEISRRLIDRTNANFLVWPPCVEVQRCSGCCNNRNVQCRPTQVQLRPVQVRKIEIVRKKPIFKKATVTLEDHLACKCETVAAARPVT
# procedure_text: filter
# particulars: NapdU at P; 2'-OMe 21
recorded_endpoint: Kd (nM)
Give bare numbers, in nM.

Lookup: Could you share which Kd value was measured for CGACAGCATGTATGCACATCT [5169-4_53] ?
Found: 0.022

---

# assayed_target: PDGF-BB (platelet-derived growth factor BB) (Homo sapiens) (UniProt P01127)
# procedure_text: filter
# particulars: Bn-dU; C3 at 19
recorded_endpoint: Kd

Lookup: Could you share which Kd value was measured for TTACGACTACGTTACACGGTTTATAGCG [4149-8_82] ?
Found: > 10 nM

---

# assayed_target: PDGF-BB (platelet-derived growth factor BB) (Homo sapiens)
# procedure_text: filter
# particulars: NapdU at P; C3 spacer at 7
recorded_endpoint: Kd (nM)
Answers are plain numbers, in nM.

Lookup: Could you share which Kd value was measured for CGACAGATGTATGCACATCT [5169-4_65] ?
Found: 0.074
